Tested on: Yap1 mRNA
Assay: Dose-dependent inhibition of human Yap1 in A-431 cells (Example 6, 5,000 cells per well, RTS4814)
Format: cell-based
Conditions: Table 54; A-431 cells, free uptake, 148 nM, approximately 48 hours, RTS4814
Experimental: Modified oligonucleotides described in the studies above were tested at various doses in A-431 cells. […] After approximately 48 hours, Yap1 mRNA levels were measured as previously described using the Human Yap1 primer-probe set RTS4814. Yap1 mRNA levels were normalized to total RNA content, as measured by RIBOGREEN®. […] IC50s were calculated using a linear regression on a log/linear plot of the data in excel.
Strand notation (5' to 3'): a small letter for the sugar, then the base; units joined by * are phosphorothioate-linked, units joined directly phosphodiester-linked; [ ] holds rarer units or linkages, { } end groups; capitals alone tell only the bases. k = constrained ethyl (cEt); [5mC] = 5-methylcytosine; d = 2'-deoxy (DNA)
Quick list: % UTC 148 nM per entry.
Write the value in % UTC as a bare number.

Sample records with % UTC 148 nM:
[
  {
    "substance": "715414 (kA*kA*k[5mC]*dA*dT*dG*d[5mC]*dT*dG*dT*dG*dG*dA*kG*kT*k[5mC]; antisense) [compound 715414]",
    "system.under.test": "Yap1 mRNA",
    "assay.endpoint": "% UTC 148 nM",
    "experimental.value": 91
  },
  {
    "substance": "716370 (k[5mC]*kA*kG*dT*dG*d[5mC]*d[5mC]*dT*dG*d[5mC]*dA*dT*d[5mC]*kA*kG*kT; antisense) [compound 716370]",
    "system.under.test": "Yap1 mRNA",
    "assay.endpoint": "% UTC 148 nM",
    "experimental.value": 81
  },
  {
    "substance": "715582 (kG*kT*k[5mC]*dA*dA*dG*d[5mC]*d[5mC]*dT*dG*dT*d[5mC]*dT*kG*kG*kA; antisense) [compound 715582]",
    "system.under.test": "Yap1 mRNA",
    "assay.endpoint": "% UTC 148 nM",
    "experimental.value": 98
  }
]

Ask: Supply reported % UTC 148 nM belonging to this substance: 716376 (k[5mC]*kG*kA*dA*dG*dA*dT*dG*d[5mC]*dT*dG*dA*dG*k[5mC]*kT*kG; antisense) [compound 716376]
Result: 103

Ask: Quote % UTC 148 nM reported for 715471 (kT*kA*kT*d[5mC]*dT*dA*dG*d[5mC]*dT*dT*dG*dG*dT*kG*kG*k[5mC]; antisense) [compound 715471] please.
Result: 82

Ask: Assign % UTC 148 nM to the following record: 715558 (k[5mC]*kA*kG*dG*dA*dA*dG*dT*dT*dA*dT*dT*d[5mC]*kA*kG*k[5mC]; antisense) [compound 715558]
Result: 94
